# SYSTEM NAME: N-formyl peptide receptor 2 (Homo sapiens)
# Sequence (P25090 whole entry): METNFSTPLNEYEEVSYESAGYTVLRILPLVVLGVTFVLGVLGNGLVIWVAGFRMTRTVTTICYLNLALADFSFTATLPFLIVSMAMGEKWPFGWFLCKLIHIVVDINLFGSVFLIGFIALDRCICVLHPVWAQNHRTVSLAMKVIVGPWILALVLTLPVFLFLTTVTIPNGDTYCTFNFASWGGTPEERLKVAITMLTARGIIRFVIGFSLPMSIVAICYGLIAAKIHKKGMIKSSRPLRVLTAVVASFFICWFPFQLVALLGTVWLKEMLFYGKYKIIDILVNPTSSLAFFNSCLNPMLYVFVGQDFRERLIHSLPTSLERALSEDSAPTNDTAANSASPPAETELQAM
# EXPERIMENTAL DETAILS: cAMP Assay: FPR2 and FPR1 Cyclic Adenosine Monophosphate (cAMP) Assays. A mixture of forskolin (5 μM final for FPR2 or 10 μM final for FPR1) and IBMX (200 μM final) were added to 384-well Proxiplates (Perkin-Elmer) pre-dotted with test compounds in DMSO (1% final) at final concentrations in the range of 0.020 nM to 100 μM. Chinese Hamster Ovary cells (CHO) overexpressing human FPR1 or human FPR2 receptors were cultured in F-12 (Ham's) medium supplemented with 10% qualified FBS, 250 μg/ml zeocin and 300 μg/ml hygromycin (Life Technologies). Reactions were initiated by adding 2,000 human FPR2 cells per well or 4,000 human FPR1 cells per well in Dulbecco's PBS (with calcium and magnesium) (Life Technologies) supplemented with 0.1% BSA (Perkin-Elmer). The reaction mixtures were incubated for 30 min at room temperature. The level of intracellular cAMP was determined using the HTRF HiRange cAMP assay reagent kit (Cisbio) according to manufacturer's instruction. Solutions of cryptate conjugated anti-cAMP and d2 flurorophore-labelled cAMP were made in a supplied lysis buffer separately. Upon completion of the reaction, the cells were lysed with equal volume of the d2-cAMP solution and anti-cAMP solution. After a 1-h room temperature incubation, time-resolved fluorescence intensity was measured using the Envision (Perkin-Elmer) at 400 nm excitation and dual emission at 590 nm and 665 nm.
MEASURED PROPERTY: EC50 (µM)

P: O=C(Nc1ccc(Cl)cc1)N[C@@H]1CCCN(c2ccc(-c3c(Cl)cccc3Cl)cc2)C1=O
Q: NC(=O)c1ccccc1-c1ccc(N2CCC[C@@H](NC(=O)Nc3ccc(F)c(F)c3)C2=O)cc1
Min EC50? P | Q Write down the label attached to your selection. P
